- ASSAY TARGET: T1, recombinant human MCL-1ΔNΔC (amino acids 172-320) (human, UniProt Q07820 172-320)
- T1 construct: also called rMCL-1; MCL-1NC
- T1 sequence (Q07820 172-320 limits assumed, stated change not applied): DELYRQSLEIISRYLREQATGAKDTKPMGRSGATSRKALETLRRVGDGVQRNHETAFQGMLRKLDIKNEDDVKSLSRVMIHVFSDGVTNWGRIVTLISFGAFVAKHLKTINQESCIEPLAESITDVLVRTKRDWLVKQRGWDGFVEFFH
- PROTOCOL DETAILS: fluorescence polarization (FPA), FITC-SAHB with recombinant anti-apoptotic protein [upper table]
Bridges are numbered along the chain shown (N, C = ends). Where no end group is shown, it is not given here. [ ]: non-standard residue; d: D form. The star is where a group is joined. FITC = O=C1OC2(c3ccc(O)cc3Oc3cc(O)ccc32)c2ccc(NC(=S)*)cc21; S5 = C=CCCC[C@](C)(N)C(=O)O; Nle = CCCC[C@H](N)C(=O)O
PROPERTY LABEL: Kd (nM)

• {FITC}-RLAEVSAVLL[S5]LGD[S5]LE[Nle]IR (staple 11-15) [BOK SAHB] = 115
